- Tested on: tubulin
- experimentalProtocol: Tubulin binding assay (Tubulin Assay), method of Parness et al.
- runConditions: compared to taxol and taxotere
Kindly apply the following: Fulfilled if Tubulin Assay Rel. Rate is less than 90, Not fulfilled in every other case.

molecule | classification
COc1ccc([C@H](NC(=O)c2ccc(C)cc2)[C@@H](O)C(=O)O[C@H]2C[C@@]3(O)[C@@H](OC(=O)c4ccccc4)[C@@H]4[C@]5(OC(C)=O)CO[C@@H]5C[C@H](O)[C@@]4(C)C(=O)[C@H](OC(C)=O)C(=C2C)C3(C)C)cc1 | Not fulfilled
CC(=O)O[C@H]1C(=O)[C@@]2(C)[C@H]([C@H](OC(=O)c3ccccc3)[C@]3(O)C[C@H](OC(=O)[C@H](O)[C@@H](NC(=O)c4ccccc4)c4ccc5ccccc5c4)C(C)=C1C3(C)C)[C@]1(OC(C)=O)CO[C@@H]1C[C@@H]2O | Fulfilled
CC(=O)O[C@H]1C(=O)[C@@]2(C)[C@H]([C@H](OC(=O)c3ccccc3)[C@]3(O)C[C@H](OC(=O)[C@H](O)[C@@H](NC(=O)c4ccc(C)cc4)c4ccc(F)cc4)C(C)=C1C3(C)C)[C@]1(OC(C)=O)CO[C@@H]1C[C@@H]2O | Not fulfilled
CC(=O)O[C@H]1C(=O)[C@@]2(C)[C@H]([C@H](OC(=O)c3ccccc3)[C@]3(O)C[C@H](OC(=O)[C@H](O)[C@@H](NC(=O)c4ccc(Br)cc4)c4ccc(Cl)cc4)C(C)=C1C3(C)C)[C@]1(OC(C)=O)CO[C@@H]1C[C@@H]2O | Fulfilled
COc1ccc([C@H](NC(=O)c2ccc(Cl)cc2)[C@@H](O)C(=O)O[C@H]2C[C@@]3(O)[C@@H](OC(=O)c4ccccc4)[C@@H]4[C@]5(OC(C)=O)CO[C@@H]5C[C@H](O)[C@@]4(C)C(=O)[C@H](OC(C)=O)C(=C2C)C3(C)C)cc1 | Fulfilled

---

Parameter Tubulin Assay Init. Peak: see the listing below.
- System: tubulin
- experimentalProtocol: Tubulin binding assay (Tubulin Assay), method of Parness et al.
- runConditions: compared to taxol and taxotere
assayMetric: Tubulin Assay Init. Peak

compound | targetSystem | assayResult
CC(=O)O[C@H]1C(=O)[C@@]2(C)[C@H]([C@H](OC(=O)c3ccccc3)[C@]3(O)C[C@H](OC(=O)[C@H](O)[C@@H](NC(=O)c4ccc(Cl)cc4)c4ccc(F)cc4)C(C)=C1C3(C)C)[C@]1(OC(C)=O)CO[C@@H]1C[C@@H]2O [Example 18] | tubulin | 109
COc1ccc(C(=O)N[C@@H](c2ccc(OC)cc2)[C@@H](O)C(=O)O[C@H]2C[C@@]3(O)[C@@H](OC(=O)c4ccccc4)[C@@H]4[C@]5(OC(C)=O)CO[C@@H]5C[C@H](O)[C@@]4(C)C(=O)[C@H](OC(C)=O)C(=C2C)C3(C)C)cc1 [Example 32] | tubulin | 51
COc1ccc(C(=O)N[C@@H](c2ccc(F)cc2)[C@@H](O)C(=O)O[C@H]2C[C@@]3(O)[C@@H](OC(=O)c4ccccc4)[C@@H]4[C@]5(OC(C)=O)CO[C@@H]5C[C@H](O)[C@@]4(C)C(=O)[C@H](OC(C)=O)C(=C2C)C3(C)C)cc1 [Example 28] | tubulin | 106
CC(=O)O[C@H]1C(=O)[C@@]2(C)[C@H]([C@H](OC(=O)c3ccccc3)[C@]3(O)C[C@H](OC(=O)[C@H](O)[C@@H](NC(=O)c4ccccc4)c4ccccc4)C(C)=C1C3(C)C)[C@]1(OC(C)=O)CO[C@@H]1C[C@@H]2O [Taxol, taxol, reference compound] | tubulin | 100
CC(=O)O[C@H]1C(=O)[C@@]2(C)[C@H]([C@H](OC(=O)c3ccccc3)[C@]3(O)C[C@H](OC(=O)[C@H](O)[C@@H](NC(=O)c4ccccc4)c4ccc5ccccc5c4)C(C)=C1C3(C)C)[C@]1(OC(C)=O)CO[C@@H]1C[C@@H]2O [Example 2, 3'-desphenyl-3'-(2-naphthyl) taxol] | tubulin | 0
CC(=O)O[C@H]1C(=O)[C@@]2(C)[C@H]([C@H](OC(=O)c3ccccc3)[C@]3(O)C[C@H](OC(=O)[C@H](O)[C@@H](NC(=O)c4ccc(C)cc4)c4ccccc4)C(C)=C1C3(C)C)[C@]1(OC(C)=O)CO[C@@H]1C[C@@H]2O [Example 12, N-debenzoyl-N-(4-methylbenzoyl) taxol] | tubulin | 107
CC(=O)O[C@H]1C(=O)[C@@]2(C)[C@H]([C@H](OC(=O)c3ccccc3)[C@]3(O)C[C@H](OC(=O)[C@H](O)[C@@H](NC(=O)c4ccccc4)c4ccc(Cl)cc4)C(C)=C1C3(C)C)[C@]1(OC(C)=O)CO[C@@H]1C[C@@H]2O [Example 4, 3'-desphenyl-3'-(4-chlorophenyl) taxol] | tubulin | 94

Just for reference, patent US5250683A is where these values come from.
